Where do the numbers come from? From ChEMBL document CHEMBL1153536.

Target sequence: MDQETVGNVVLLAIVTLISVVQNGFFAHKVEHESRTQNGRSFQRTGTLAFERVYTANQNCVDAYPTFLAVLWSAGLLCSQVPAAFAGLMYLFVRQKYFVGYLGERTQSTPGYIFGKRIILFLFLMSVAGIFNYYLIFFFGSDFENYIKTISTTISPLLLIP
pIC50: −log10 of the molar value.
property-label: pIC50

A: CC(C)(Cc1cc2cc(OCc3ccccn3)ccc2n1Cc1ccc(-c2nccs2)cc1)C(=O)O
B: COc1ccc(-c2cccc(Cn3c(CC(C)(C)C(=O)O)c(SC(C)(C)C)c4cc(OCc5ccccn5)ccc43)c2)cn1
C: Cc1ccc(-c2ccc(Cn3c(CC(C)(C)C(=O)O)c(SC(C)(C)C)c4cc(OCc5ccccn5)ccc43)cc2)nn1
Q) Using the list above, order everything by rising pIC50. Respond with an ordered listing of the labels, as requested.
A) A, C, B
(A: 6.52, C: 7.57, B: 8.26)
